// data source = patent US20240150334A1

# reported log10(IC50); entries follow
Biological target: wild type human HSD17B13 (Homo sapiens (Human))
Experiment: HEK_Beta-Est LCMS_IC50_Tekcel, whole-cell HEK-HSD17B13 inhibition assay, estrone production by LCMS
Settings: geometric mean, HEK cells stably expressing wild type human HSD17B13, 25 μM FAC beta-estradiol, read-out: HEK_Beta-Est LCMS_IC50—Tekcel GMean IC50
Counter-ions that a name gives are not always drawn.
Reminder: these figures are log10 of reported IC50, in nM before transformation.

Ask: Identify the reported log10(IC50) for the following entry. Cn1cc(-c2ccc3nn([C@H]4CC[C@H](CNC(=O)c5cc(F)c(O)c(F)c5)CC4)cc3c2)cn1 [Example 159, trifluoroacetate salt]
Reply: 1.96

Ask: Identify the reported log10(IC50) for the following entry. O=C(NC[C@H]1CC[C@H](n2cc3ccc(-c4csc(C5CC5)n4)cc3n2)CC1)c1cc(F)c(O)c(F)c1 [Example 85]
Reply: 2.26

Ask: Identify the reported log10(IC50) for the following entry. Cn1nc(-c2noc([C@]34CC[C@](CNC(=O)c5cc(F)c(O)c(F)c5)(CC3)CC4)n2)ccc1=O [Example 146]
Reply: 2.46

Ask: Identify the reported log10(IC50) for the following entry. O=C(NC[C@H]1CC[C@H](c2nc(-c3cnc(C(F)(F)F)cn3)no2)CC1)c1cc(F)c(O)c(F)c1F [Example 148]
Reply: 2.67

Ask: Identify the reported log10(IC50) for the following entry. O=C(NC[C@H]1CC[C@H](n2cc3ccc(-c4ncc(C(F)F)s4)cc3n2)CC1)c1cc(F)c(O)c(F)c1 [Example 91]
Reply: 2.45

Ask: Identify the reported log10(IC50) for the following entry. O=C(NC[C@H]1CC[C@H](n2cc3ccc(-c4ncc5cc[nH]c5n4)cc3n2)CC1)c1cc(F)c(O)c(F)c1 [Example 97]
Reply: 2.48

Ask: Identify the reported log10(IC50) for the following entry. O=C(NC[C@H]1CC[C@H](n2cc3ccc(-c4csc5cncn45)cc3n2)CC1)c1cc(F)c(O)c(F)c1 [Example 84, trifluoroacetate salt]
Reply: 2.59

Ask: Identify the reported log10(IC50) for the following entry. O=C(NC[C@H]1CC[C@H](n2cc3ccc(-c4cnccn4)cc3n2)CC1)c1cc(F)c(O)c(F)c1 [Example 65]
Reply: 2.23

Ask: Identify the reported log10(IC50) for the following entry. Cc1cc(-c2ccc3cn([C@H]4CC[C@H](CNC(=O)c5cc(F)c(O)c(F)c5)CC4)nc3c2)ncn1 [Example 87]
Reply: 2.11

Ask: Identify the reported log10(IC50) for the following entry. Cn1cc(-c2ccc3cn([C@]45CC[C@](CNC(=O)c6cc(F)c(O)c(F)c6F)(CC4)CC5)nc3c2)cn1 [Example 209]
Reply: 2.18

Further cases:
Ask: Identify the reported log10(IC50) for the following entry. O=C(NC[C@H]1CC[C@H](n2cc3ccc(-c4cnoc4)cc3n2)CC1)c1cc(F)c(O)c(F)c1 [Example 111]
Reply: 1.91

---

Listed here: compounds with reported pIC50 for HSD17B13 enzyme (Homo sapiens (Human)).
Where a name gives a salt, the structure may show the parent alone.
Scale explanation: pIC50 corresponds to minus log10 of a concentration expressed in moles per litre.

In the examples that follow, each entry is paired with its recorded pIC50.
Ask: Report pIC50 under test system HSD17B13 enzyme (Homo sapiens (Human)) for O=C(NC[C@H]1CC[C@H](n2cc3cc(Cl)ccc3n2)CC1)c1cc(F)c(O)c(F)c1 [Example 132, ammonium salt] .
Reply: 7.85

Ask: Report pIC50 under test system HSD17B13 enzyme (Homo sapiens (Human)) for O=C(NC[C@]12CC[C@](c3noc(-c4cccc(OS(=O)(=O)F)c4)n3)(CC1)CC2)c1cc(F)c(O)c(F)c1 [Example 190] .
Reply: 8.07

Ask: Report pIC50 under test system HSD17B13 enzyme (Homo sapiens (Human)) for O=C(NC[C@H]1CC[C@H](n2cc3ccc(-c4ncc(C5CC5)cn4)cc3n2)CC1)c1cc(F)c(O)c(F)c1 [Example 54] .
Reply: 8.02

Further cases:
Ask: Report pIC50 under test system HSD17B13 enzyme (Homo sapiens (Human)) for O=C(NC[C@H]1CC[C@H](n2cc3ccc(-c4cncnc4)cc3n2)CC1)c1cc(F)c(O)c(F)c1F [Example 9] .
Reply: 7.89

Ask: Report pIC50 under test system HSD17B13 enzyme (Homo sapiens (Human)) for O=C(NC[C@H]1CC[C@H](n2cc3ccc(Cl)cc3n2)CC1)c1cc(F)c(O)c(F)c1 [Example 135, ammonium salt] .
Reply: 7.68

Ask: Report pIC50 under test system HSD17B13 enzyme (Homo sapiens (Human)) for O=C(NC[C@H]1CC[C@H](n2cc3ccc(-c4cnn(C5CCOCC5)c4)cc3n2)CC1)c1cc(F)c(O)c(F)c1 [Example 12] .
Reply: 7.96

Ask: Report pIC50 under test system HSD17B13 enzyme (Homo sapiens (Human)) for O=C(NC[C@H]1CC[C@H](n2cc3cc(F)ccc3n2)CC1)c1cc(F)c(O)c(F)c1 [Example 133, ammonium salt] .
Reply: 7.54

---

# reported pIC50; entries follow
Target: wild type human HSD17B13 (Homo sapiens (Human), UniProt Q7Z5P4)
Sequence (Q7Z5P4 20-300): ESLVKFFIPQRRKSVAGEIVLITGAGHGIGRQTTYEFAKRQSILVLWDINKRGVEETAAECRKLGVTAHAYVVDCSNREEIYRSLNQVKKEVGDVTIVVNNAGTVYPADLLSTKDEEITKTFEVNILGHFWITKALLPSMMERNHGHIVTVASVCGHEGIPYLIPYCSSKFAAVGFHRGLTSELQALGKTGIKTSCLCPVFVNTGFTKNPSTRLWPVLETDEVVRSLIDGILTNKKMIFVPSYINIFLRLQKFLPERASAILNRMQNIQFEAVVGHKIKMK
Test: HEK_Beta-Est LCMS_IC50_Tekcel, whole-cell HEK-HSD17B13 inhibition assay, estrone production by LCMS
Details: geometric mean, HEK cells stably expressing wild type human HSD17B13, 25 μM FAC beta-estradiol, read-out: HEK_Beta-Est LCMS_IC50—Tekcel GMean IC50
Counter-ions that a name gives are not always drawn.
Scale explanation: pIC50 corresponds to minus log10 of a concentration expressed in moles per litre.

Ask: Identify the reported pIC50 for the following entry. `COc1ccc(-c2ccc3cn([C@H]4CC[C@H](CNC(=O)c5cc(F)c(O)c(F)c5)CC4)nc3c2)cc1`
Reply: 6.57

Ask: Identify the reported pIC50 for the following entry. O=C(NC[C@H]1CC[C@H](n2cc3ccc(-c4cccn5ncnc45)cc3n2)CC1)c1cc(F)c(O)c(F)c1 [Example 113, trifluoroacetate salt]
Reply: 6.49

Ask: Identify the reported pIC50 for the following entry. `O=C(NC[C@H]1CC[C@H](c2nc(-c3ccc(C(F)(F)F)cn3)no2)CC1)c1cc(F)c(O)c(F)c1F`
Reply: 6.35

Ask: Identify the reported pIC50 for the following entry. `O=C(NC[C@H]1CC[C@H](n2cc3ccc(-c4cnc(C(F)(F)F)cn4)cc3n2)CC1)c1cc(F)c(O)c(F)c1`
Reply: 6.72

Ask: Identify the reported pIC50 for the following entry. `COc1ncc(-c2cc3nn([C@H]4CC[C@H](CNC(=O)c5cc(F)c(O)c(F)c5)CC4)cc3cn2)cn1`
Reply: 6.49

Ask: Identify the reported pIC50 for the following entry. Cc1cc(-c2ccc3cn([C@H]4CC[C@H](CNC(=O)c5cc(F)c(O)c(F)c5)CC4)nc3c2)ccn1 [Example 81, trifluoroacetate salt]
Reply: 6.92

---

Biological target: wild type human HSD17B13 (Homo sapiens (Human), UniProt Q7Z5P4)
Test: HEK_Beta-Est LCMS_IC50_Tekcel, whole-cell HEK-HSD17B13 inhibition assay, estrone production by LCMS
Settings: geometric mean, HEK cells stably expressing wild type human HSD17B13, 25 μM FAC beta-estradiol, read-out: HEK_Beta-Est LCMS_IC50—Tekcel GMean IC50
parameterMeasured: IC50
Your answer should be a number followed by the unit of measure.

Ask: Identify the reported IC50 for the following entry. Cc1ccn(-c2ccc3cn([C@H]4CC[C@H](CNC(=O)c5cc(F)c(O)c(F)c5F)CC4)nc3c2)n1 [Example 162]
Reply: 310 nM

Ask: Identify the reported IC50 for the following entry. COc1ccc(-c2noc([C@]34CC[C@](CNC(=O)c5cc(F)c(O)c(F)c5)(CC3)CC4)n2)nn1 [Example 124]
Reply: 160 nM

Ask: Identify the reported IC50 for the following entry. COc1nc(-c2ccc3cn([C@H]4CC[C@H](CNC(=O)c5cc(F)c(O)c(F)c5)CC4)nc3c2)nn1C [Example 86]
Reply: 270 nM

Further cases:
Ask: Identify the reported IC50 for the following entry. O=C(NC[C@H]1CC[C@H](n2cc3ccc(-c4cncnc4)cc3n2)CC1)c1cc(F)c(O)c(F)c1F [Example 9]
Reply: 170 nM

Ask: Identify the reported IC50 for the following entry. O=C(NC[C@H]1CC[C@H](c2noc(-c3cc4ccccn4n3)n2)CC1)c1cc(F)c(O)c(F)c1 [Example 176]
Reply: 190 nM

Ask: Identify the reported IC50 for the following entry. CC(C)c1ncc(-c2ccc3cn([C@H]4CC[C@H](CNC(=O)c5cc(F)c(O)c(F)c5)CC4)nc3c2)o1 [Example 121]
Reply: 150 nM

Ask: Identify the reported IC50 for the following entry. O=C(NC[C@]12CC[C@](c3nc(-c4ccc(C(F)(F)F)nc4)no3)(CC1)CC2)c1cc(F)c(O)cc1F [Example 195]
Reply: 390 nM

Ask: Identify the reported IC50 for the following entry. O=C(NC[C@H]1CC[C@H](n2cc3ccc(-c4cnsc4)cc3n2)CC1)c1cc(F)c(O)c(F)c1 [Example 100]
Reply: 65 nM

Ask: Identify the reported IC50 for the following entry. O=C(NC[C@H]1CC[C@H](n2cc3cc(C(F)(F)F)ccc3n2)CC1)c1cc(F)c(O)c(F)c1F [Example 182]
Reply: 230 nM

Ask: Identify the reported IC50 for the following entry. CC(C)(O)c1cncc(-c2ccc3cn([C@H]4CC[C@H](CNC(=O)c5cc(F)c(O)c(F)c5)CC4)nc3c2)c1 [Example 59]
Reply: 470 nM

Ask: Identify the reported IC50 for the following entry. COc1cnc(-c2ccc3cn([C@H]4CC[C@H](CNC(=O)c5cc(F)c(O)c(F)c5)CC4)nc3c2)nc1 [Example 66]
Reply: 180 nM

Ask: Identify the reported IC50 for the following entry. O=C(NC[C@H]1CC[C@H](N2Cc3cc(Cl)ccc3C2=O)CC1)c1cc(F)c(O)cc1F [Example 186]
Reply: 480 nM

Ask: Identify the reported IC50 for the following entry. O=C(NC[C@]12CC[C@](c3nc(-c4ccc(C(F)F)nc4)no3)(CC1)CC2)c1cc(F)c(O)c(F)c1 [Example 142]
Reply: 160 nM

Ask: Identify the reported IC50 for the following entry. O=C(NC[C@H]1CC[C@H](n2cc3ccc(-c4cscn4)cc3n2)CC1)c1cc(F)c(O)c(F)c1 [Example 69]
Reply: 130 nM

Ask: Identify the reported IC50 for the following entry. Cc1cn(-c2ccc3cn([C@H]4CC[C@H](CNC(=O)c5cc(F)c(O)c(F)c5F)CC4)nc3c2)cn1 [Example 163]
Reply: 330 nM
